assay: Liquid-liquid extraction from aqueous lithium-containing solution, ICP detection: lithium; conditions: feed B3 (cLi 0.937, cNa 119.10, cK 43.03 g/L, pH 9.60); organic phase and phase ratio per example;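 note: component concentrations in the aqueous phase were measured by inductively coupled plasma optical emission spectrometry after shaking and phase separation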
metric: extraction rate for lithium ions (%)

CC(=O)CC(=O)c1ccccc1 [Comparative Example 1, benzoyl acetone, reference compound]
53.0
O=C(CC(=O)c1ccccc1)c1ccccc1 [Comparative Example 3, 1,3-diphenyl-1,3-propanedione, reference compound]
59.76
Cc1ccc(C(=O)CC(=O)C(F)(F)F)cc1 [Comparative Example 6, reference compound]
81.11
CCCCCCCCCCOc1ccc(C(=O)c2ccccc2)c(O)c1 [Example 11, 4-decyloxy-2-hydroxydibenzophenone]
3.1
